system: SN12C renal; assay: NCI-60 one-dose screen, 48 h; conditions: 10 µM unless noted
Compounds without any hit were thinned out: in the full panel of roughly 83,000, 20% have a hit. Activity calls are given as the source filed them. Rule for the calls: active = growth percent below 10; inactive = the rest.
Tick one outcome: active, inactive

Example entries begin here.
compound	measurement-target	class-name
C=CCc1cc(Cl)cc2c(OC(C)=O)c(C(C)=O)c(-c3ccccc3)nc12	SN12C renal	inactive
COc1cc(C(=O)/C=C/c2cc(C(=O)c3cc(OC)c(OC)c(OC)c3)ccc2OC)ccc1N	SN12C renal	inactive
CCCCn1c(=O)c(C2CNC(=O)c3ccccc3N2)cc2ccccc21 (configuration not stated)	SN12C renal	inactive
COc1ccc(/C=C/C(=O)OCC(=O)NNC(=O)c2ccccc2)cc1OC	SN12C renal	inactive
CCOC(=O)CC(C#N)(CC(=O)OCC)C(=O)OCC	SN12C renal	inactive
COc1ccc(-n2cnc3c(sc4ncc(Cl)cc43)c2=O)cc1	SN12C renal	inactive

Hey, what did the test say about CSc1ccccc1C#C/C=C\C#Cc1ccccc1N1CCCC1=O ?
inactive

For CCCCCCOc1ccc(C2(Cl)c3ccccc3N(C)c3ccccc32)cc1 , what call appears in the results of this test?
inactive

# fetch the recorded call for O=c1oc2c([nH]c3ccc4ccccc4c32)c2ccccc12 here
inactive

Hi, sorry to bother you, what did the test record for O=S(=O)(NCCCNc1cc(-c2cn(-c3ccccc3)nc2-c2cccc(O)c2)ccn1)c1ccc(C(F)(F)F)cc1 ?
inactive

What did this assay record as the result for CCc1cccc(C)c1NC(=O)c1sc2nc3c(cc2c1N)C(=O)CCC3 ?
inactive

# lookup: test call for COc1cc(C(=O)CCCl)ccc1O
inactive

Recorded test call requested for CCCC(C(=O)OCC)C(C)OC(=O)OCC (configuration not stated)
inactive

So what was the verdict on Cc1sc2nc(CSc3nnc(-c4ccco4)o3)[nH]c(=O)c2c1C in this test?
inactive

Would you mind telling me which call this test gave CC(Br)C(Br)c1cc2c(cc1Br)OCO2 (configuration not stated) ?
inactive

Tell me the recorded outcome of this test for O=S=Nc1ccc([N+](=O)[O-])cc1 .
inactive

Tell me the assay call for COc1cc(C2C=C(C)N=C3SC=C(C)N32)cc(OC)c1OC (configuration not stated) please.
active

Check the results log: what was the call for CCC1=C[C@@H]2CN(C1)Cc1c([nH]c3ccccc13)[C@@](C(=O)OC)(c1cc3c(cc1OC)N(C=O)[C@H]1[C@@](O)(C(=O)OC)[C@H](OC(C)=O)[C@]4(CC)[C@@H]5C[C@@H]5CN5CC[C@]31[C@@H]54)C2 ?
inactive

What outcome does the record of this test show for Nc1c(C(=O)Nc2ccccc2)sc2nc3c(cc12)CN(Cc1ccccc1)CC3 ?
inactive

Which outcome was entered for the compound COc1ccc(/C=C/C(=O)c2ccc(NC(=O)CN3CCN(c4cc5c(cc4F)c(=O)c(C(=O)O)cn5C4CC4)CC3)cc2)cc1 in this test?
inactive

Hi, do you know how Cc1c(C(=O)NCc2ccccc2)[n+](=O)c2cc(F)ccc2n1[O-] came out in this test?
inactive

Fill in: this test's call for COC1=CC(c2ccc[nH]2)=N/C1=C\c1[nH]c(C)c(CCCn2cc(CCCCCCCCC[C@@H]3Cc4cc(O)ccc4C4CC[C@]5(C)[C@@H](O)CC[C@H]5C43)nn2)c1C (some centres not stated) is ___
inactive

Which outcome was entered for the compound NC(=O)c1ccc2c(c1)OCO2 in this test?
inactive

Per the assay record, what outcome was assigned to CCOC(=O)/C=C\C(=O)NC(N)=O ?
inactive

---

system: TK-10 renal; assay: NCI-60 one-dose screen, 48 h; conditions: 10 µM unless noted
This is part of a sample that, as a whole, favours compounds with a hit. Of some 83,000 tested, about 20% had one in any assay. The source made the active and inactive calls. Rule for the calls: active = growth percent below 10; inactive = the rest.
Would you mind answering with one of these outcomes? active, inactive

Given Cc1cc(-c2ccccc2)c(C)n1Cc1ccc(Cl)cc1 , state the outcome it received in this test.
inactive

Please share the test call associated with CC(=O)Nc1nc(C(=O)N2N=C(C)/C(=C/c3cccs3)C2=O)cs1 .
inactive

Recorded test call requested for O=P([O-])(O)OP(=O)([O-])O.[NH-][C@H]1CCCC[C@@H]1[NH-].[OH-].[OH-].[Pt+4]
inactive

For O=C(N/N=C/c1c(Cl)cccc1Cl)c1ccccc1Nc1ccnc(C(F)(F)F)c1 , which call appears in the assay record?
inactive

Fill in: this test's call for N#CC1=C(N)n2nc(-c3ccncc3)nc2NC1c1cccc2ccccc12 (stereo unspecified) is ___
inactive

Field: outcome | Entry: COc1ccc(S(=O)(=O)NCCNc2nccc(-c3c(-c4ccccc4)nc4sccn34)n2)cc1
inactive

Outcome? CCN(C(=O)c1cc2ncccc2[nH]1)[C@H]1CCC[C@@H](NCc2cccc(F)c2)C1
inactive

For this molecule, state the assay outcome: CC/C=C\C/C=C\C[C@H](O)C/C=C1/C(=O)C=C[C@H]1C/C=C\CCC(=O)OC
inactive

// param item: Nc1nn2cc(-c3ccc(Cl)s3)nc2c2ccccc12 ; yields the recorded call
inactive

Entry CCCCCC/C=C\CCCCCCCCOc1ccc(CCOP(=O)(O)OCC[N+](C)(C)C)cc1 : call = ?
inactive

Outcome? COc1ccc(NC(=O)c2cc3ccccc3nc2Nc2cc(OC)c(OC)c(OC)c2)cc1
inactive

Please indicate how the test categorized CC1CCc2c(sc(NC(=O)CSc3nnc4ccccn34)c2C(N)=O)C1 (stereo unspecified) .
inactive

Each molecule tested received a call. Report the one for ClC1=C(Cl)C(Cl)=C(Cl)C1=Cc1ccc(Cl)cc1Cl .
active

Lab log entry: Cc1ccc2c(c1)C(C)Cc1c(N(C)C)ncnc1N2C (stereo unspecified) — outcome as called in the assay?
inactive

Outcome logged for C=C1C(=O)O[C@H]2[C@H]1CC/C(COC(=O)NCCc1cccc(OC)c1)=C\CC[C@@]1(C)O[C@@H]21 in this assay:
inactive

---

system: OVCAR-5 ovarian; assay: NCI-60 one-dose screen, 48 h (100 = growth as untreated, 0 = no growth, -100 = all killed); conditions: 10 µM unless noted
The panel holds about 83,000 compounds, 20% with a hit somewhere; the sample as a whole holds those more often.
// NB: equality with 70% counts as not fulfilled; only growth strictly below is fulfilled

Record excerpt, results attached:
> print(dat)
                                   molecule     class.name
1  Cc1c(C2=NNC(c3ccc4c(c3)OCO4)C2)[n+]([O-])c2ccccc2[n+]1[O-] (centres undefined)  not fulfilled
2                    CC1=CNNc2c3ncnc-3ncn21  not fulfilled

Given COc1ccc(-c2nc3sccn3c2-c2ccnc(NCCCNS(=O)(=O)c3ccc4ccccc4c3)n2)cc1 , is recorded growth strictly lower than 70%?
not fulfilled

Decide: growth of C#CCN1C(=O)/C(=c2\sc3n(c2=O)C2C(NN=3)N(CC)C(=O)N2CC)c2ccccc21 (centres undefined) strictly below 70%?
fulfilled

Please let me know if c1ccc(CCn2nnc3c(Nc4ccc(N5CCOCC5)cc4)ncnc32)cc1 shows growth below 70%.
not fulfilled

Decide: growth of Cc1ccc2c(c1)C(=O)C(c1c(-c3[nH]c(=O)c4ccc(C)cc4c3O)c(O)c3ccccc3c1O)=NC2=O strictly below 70%?
fulfilled

---

tested on: HCT-116 colon; assay: NCI-60 one-dose screen, 48 h (100 = growth as untreated, 0 = no growth, -100 = all killed); settings: 10 µM unless noted
About 83,000 compounds went through this panel and 20% of them were active in at least one assay; those are over-represented in the sample as a whole.
metric-name: growth (%)
Write the number in % without appending the unit.

Below are worked cases with known answers.
molecule	measurement-target	metric-name	units-text	result
COc1ccc(-c2nc3sccn3c2-c2ccnc(NCCCNS(=O)(=O)c3ccc4ccccc4c3)n2)cc1	HCT-116 colon	growth	%	60.2
C=C1C(=O)O[C@H]2[C@H]1CC/C(Cn1cc(-c3ccc(N)cc3)nn1)=C\CC[C@@]1(C)O[C@@H]21	HCT-116 colon	growth	%	-56
CCC(c1ccc(OC)cc1)C(CC)c1ccc(O)c(CN2CCCC2)c1 (centres undefined)	HCT-116 colon	growth	%	35.9
CC(=O)Nc1ccc2c(c1)/C(=C\C=C/c1ccc([N+](C)(C)C)cc1)c1ccccc1-2	HCT-116 colon	growth	%	70.3

Query CS(=O)(=O)N(c1cc(-c2ccc3ncnc(Nc4cccc(Cl)c4)c3c2)cnc1Cl)S(C)(=O)=O yields growth of 12.1

Lab note: measured growth of Cc1cc(N/C=c2\sc3ncnn3c2=O)no1 was 95.1

Documented growth of CCNC(=O)C1CCCN1C(=O)C(CCCN=C(N)N)NC(=O)C(CC(C)C)NC(=O)C(CC(C)C)NC(=O)C(Cc1ccc(O)cc1)NC(=O)C(CO)NC(=O)C(Cc1c[nH]c2ccccc12)NC(=O)C(Cc1cnc[nH]1)NC(=O)C1CCC(=O)N1 (centres undefined) : 95.2

// field: growth; key: COc1cc(NC(=O)CCl)ccc(=O)c1 ; value = 62.6

Field growth (entry COC(=O)c1ccc(C)cc1 ) reads 101
